system: HeLa Kyoto; experiment: melting temperature (median over replicates), in situ; higher = more thermally stable; conditions: cell cycle stage: mitosis;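 further: HeLa Kyoto cells synchronized by double thymidine or nocodazole block, proteins quantified by TMT10plex mass spectrometry, three independent biological replicates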
Measured melting temperature accompanies every entry in the list below.
Value expressed in °C; do not type the unit.

Input MDCEVNNGSSLRDECITNLLVFGFLQSCSDNSFRRELDALGHELPVLAPQWEGYDELQTDGNRSSHSRLGRIEADSESQEDIIRNIARHLAQVGDSMDRSIPPGLVNGLALQLRNTSRSEEDRNRDLATALEQLLQAYPRDMEKEKTMLVLALLLAKKVASHTPSLLRDVFHTTVNFINQNLRTYVRSLARNGMD [BID] . Output melting temperature: 55.5

Input MAAACGPGAAGYCLLLGLHLFLLTAGPALGWNDPDRMLLRDVKALTLHYDRYTTSRRLDPIPQLKCVGGTAGCDSYTPKVIQCQNKGWDGYDVQWECKTDLDIAYKFGKTVVSCEGYESSEDQYVLRGSCGLEYNLDYTELGLQKLKESGKQHGFASFSDYYYKWSSADSCNMSGLITIVVLLGIAFVVYKLFLSDGQYSPPPYSEYPPFSHRYQRFTNSAGPPPPGFKSEFTGPQNTGHGATSGFGSAFTGQQGYENSGPGFWTGLGTGGILGYLFGSNRAATPFSDSWYYPSYPPSYPGTWNRAYSPLHGGSGSYSVCSNSDTKTRTASGYGGTRRR [SARAF] . Output melting temperature: 53.3

Input MAAPEPLRPRLCRLVRGEQGYGFHLHGEKGRRGQFIRRVEPGSPAEAAALRAGDRLVEVNGVNVEGETHHQVVQRIKAVEGQTRLLVVDQETDEELRRRQLTCTEEMAQRGLPPAHDPWEPKPDWAHTGSHSSEAGKKDVSGPLRELRPRLCHLRKGPQGYGFNLHSDKSRPGQYIRSVDPGSPAARSGLRAQDRLIEVNGQNVEGLRHAEVVASIKAREDEARLLVVDPETDEHFKRLRVTPTEEHVEGPLPSPVTNGTSPAQLNGGSACSSRSDLPGSDKDTEDGSAWKQDPFQESGLHLSPTAAEAKEKARAMRVNKRAPQMDWNRKREIFSNF [SLC9A3R2] . Output melting temperature: 54.2
